These data points were gathered from PubChem BioAssay (EPA / NIEHS).

experiment: TOX21_p53_BLA_p5_viability: Viability Assessment in the Tox21 HCT-116 p53 Agonism Beta-lactamase Assay, Phase 5 (AID 2283600)
Results filed as inconclusive are left out. The source made the active and inactive calls. How the source made its calls: active means hit-call score of the fitted dose curve at least 0.9, where 1 is the maximum; inconclusive means response in the unintended direction; inactive means score below 0.9.
Return exactly one item of Yes (active), No (inactive)

The following compounds have reported results that may help.
# compound, discrete label
data = [
    ("Cc1cc(Br)ccc1NC(=O)CCl", "Yes"),
    ("CC(=O)OC(C)C[N+](C)(C)C (configuration not stated)", "No"),
]

How did this test come out for O=Cc1ccc(Cl)cc1 ?
No

State the result this test recorded for FC(F)OC(Cl)C(F)(F)F (configuration not stated) .
No

Test call for this compound, please: CC1(C)S[C@@H]2[C@H](NC(=O)C(C(=O)O)c3ccsc3)C(=O)N2[C@H]1C(=O)O (some centres not stated)
No
